system: Salmonella paratyphi; experiment: Antibacterial activity against Salmonella enterica subsp. enterica serovar Paratyphi A after 18 hr by serial dilution method; assay type: functional
measured.quantity: MIC (µg/mL)
Give the value in µg/mL but do not write µg/mL after it.

input: Quick one: MIC for O=C(NCC(=O)N1c2ccccc2Sc2ccccc21)NN1C(=O)C(Cl)C1c1cccc(Cl)c1 (stereo not given) ?
output: 125

input: Quick one: MIC for O=C(NCC(=O)N1c2ccccc2Sc2ccccc21)NN1C(=O)C(Cl)C1c1ccc([N+](=O)[O-])cc1 (stereo not given) ?
output: 125

input: Quick one: MIC for O=C(NCC(=O)N1c2ccccc2Sc2ccccc21)NN1C(=O)C(Cl)C1c1cccc(F)c1 (stereo not given) ?
output: 125

input: Quick one: MIC for O=C(NCC(=O)N1c2ccccc2Sc2ccccc21)NN1C(=O)C(Cl)C1c1ccccc1Cl (stereo not given) ?
output: 125

input: Quick one: MIC for O=C(NCC(=O)N1c2ccccc2Sc2ccccc21)NN1C(=O)C(Cl)C1c1ccc(Cl)cc1 (stereo not given) ?
output: 250

All values here come from ChEMBL document CHEMBL3044552.
